Test system: P-gp (MDR1)
Assay: Apparent permeability across apical to basolateral side in MDR1 transfected pig LLC-PK1 cells in absence of P-gp inhibitor GF120918
Format: ADME, cell-based, Sus scrofa
Details: LLC-PK1
Recorded Papp A→B, one value per entry.
The response must be a number in ×10⁻⁶ cm/s with no trailing unit.

# example entries with known answers
In: Record request: Papp A→B value, item COc1cncc(NC(C(=O)c2c[nH]c3ccccc23)c2ccccc2)c1 (centres undefined)
Out: 4.7

In: Quick one: Papp A→B for COc1cccc(NC(C(=O)c2c[nH]c3ccccc23)c2nc3ccccc3o2)c1 (centres undefined) ?
Out: 5.6

In: What Papp A→B value was documented for this compound, COc1cc(NC(C(=O)c2c[nH]c3ccccc23)c2ccccc2)cc(OC)c1 (single isomer, unassigned; (+)) ?
Out: 7.6

***
In: Which measured Papp A→B value corresponds to COc1cc(NC(C(=O)c2c[nH]c3ccccc23)c2ccccc2)cc(OCCO)c1 (single isomer, unassigned; (+)) ?
Out: 1.8

====

Experiment: Selectivity index, ratio of CC50 for African green monkey Vero cells to EC50 for Dengue virus 2 Rega
Format: toxicity
Conditions: read-out: Ratio CC50/EC50
MEASUREMENT NAME: selectivity ratio
Note: the reply should be a number with no unit written.

In: # get_value(readout='selectivity ratio', item= COc1ccc(NC(C(=O)c2c[nH]c3ccccc23)c2ccccc2)cc1OC (stereo unspecified) )
Out: 380

====

Catalogue of compounds with associated AUC(0-t)
Assay: AUClast in rat at 10 mg/kg, po
Assay type: ADME, organism-based
Parameters: dose 10 mg/kg, route oral, time 0 - last
Conditions: in vivo

In: Give its AUC(0-t) value. Item: COc1cc(NC(C(=O)c2c[nH]c3ccccc23)c2ccccc2)cc(OCCO)c1 (single isomer, unassigned; (+))
Out: 7.32 µM·h

Alright, here's another compound for you.
In: Would you kindly share the measured AUC(0-t) for COc1cc(NC(C(=O)c2c[nH]c3ccccc23)c2ccccc2)cc(OC)c1 (single isomer, unassigned; (+)) ?
Out: 0.422 µM·h

====

Experiment: Half life in human liver microsomes
Type: ADME, microsome
MEASUREMENT NAME: half-life

In: Could you share which half-life value was measured for COc1cc(NC(C(=O)c2c[nH]c3ccc(CCCO)cc23)c2ccccc2)cc(OC)c1 (stereo unspecified) ?
Out: 38 min

====

Assay: Clearance in rat at 2.5 mg/kg, iv
Assay type: ADME, organism-based
Settings: in vivo
MEASUREMENT NAME: clearance (mL/min/kg)
Give the value, in units of mL/min/kg, as a plain number.

In: Could you tell me which clearance is on file for COc1cc(NC(C(=O)c2c[nH]c3ccccc23)c2ccccc2)cc(OCCO)c1 (single isomer, unassigned; (+)) ?
Out: 35

Consider now this further molecule.
In: Please look up its clearance: COc1cc(NC(C(=O)c2c[nH]c3ccccc23)c2ccccc2)cc(OC)c1 (single isomer, unassigned; (+))
Out: 67

====

Experiment: Solubility of the compound in DMSO solution at pH 7.4
Type: physicochemical
Conditions: read-out: solubility
MEASUREMENT NAME: solubility (µM)
Please state the figure in µM; there is no need to write the unit.

In: Dear colleague, I am looking for the recorded solubility of the following compound: COc1cc(CO)cc(NC(C(=O)c2c[nH]c3ccccc23)c2ccccc2)c1 (stereo not given)
Out: 50

Switching to the query record.
In: Return reported solubility; argument: COc1cc(NC(C(=O)c2c[nH]c3ccccc23)c2ccccc2)cc(OC)c1 (single isomer, unassigned; (+))
Out: 6

====

System: dengue virus type 2
Assay: Antiviral activity against Dengue virus 2 Rega infected in African green monkey Vero cells assessed as reduction in viral yield after 4 days by qRT-PCR analysis
Type: functional, organism-based
Conditions: Dengue virus, Rega, Vero, 96 h
MEASUREMENT NAME: pEC50
// pEC50 is dimensionless: -log10 of concentration (M)

Below: 6 compounds and their reported pEC50.
In: # lookup: pEC50 of COc1cc(NC(C(=O)c2c[nH]c3cccc(CO)c23)c2ccccc2)cc(OC)c1 (stereo unspecified)
Out: 6.54

In: Give the measured pEC50 of CS(=O)(=O)c1cccc(NC(C(=O)c2c[nH]c3ccccc23)c2ccccc2)c1 (stereo unspecified) .
Out: 5.19

In: GET /values?readout=pEC50&item= COc1cccc(NC(C(=O)c2c[nH]c3ccccc23)c2ccco2)c1 (stereo unspecified)
Out: 6.53

In: I have this compound here, COc1cncc(NC(C(=O)c2c[nH]c3ccccc23)c2ccccc2)n1 (stereo unspecified) , and I need its recorded pEC50.
Out: 6.32

In: Quick one: pEC50 of COc1cccc(NC(C(=O)c2c[nH]c3ccccc23)c2ccc(F)cc2)c1 (stereo unspecified) ?
Out: 7.60

In: Entry under review: COc1cc(NC(C(=O)c2c[nH]c3c(CCS(C)(=O)=O)cccc23)c2ccccc2)cc(OC)c1 (stereo unspecified) . Reported pEC50?
Out: 6.39

---
In: Recorded pEC50 for O=C(c1c[nH]c2ccccc12)C(Nc1cccc(F)c1)c1ccccc1 (stereo unspecified) , please?
Out: 5.62

In: Reported pEC50 for O=C(c1c[nH]c2ccccc12)C(Nc1ccc2[nH]c(=O)oc2c1)c1ccccc1 (stereo unspecified) : what is it?
Out: 5.21

In: Can you share its pEC50? I mean this compound: COc1cccc(NC(C(=O)c2c[nH]c3ccccc23)c2ccccc2C)c1 (stereo unspecified)
Out: 7.02

In: Find the recorded pEC50 belonging to COc1cccc(NC(C(=O)c2c[nH]c3ccccc23)c2cccc(C)c2)c1 (stereo unspecified) and report it.
Out: 6.57

In: Fill blank: measured pEC50 of the compound COc1cccc(NC(C(=O)c2c[nH]c3ccccc23)c2cncnc2)c1 (stereo unspecified) is ____.
Out: 6.41

====

Dear all, this message contains IC50 results, target or system Cytochrome P450 3A4 (Homo sapiens).

Please review the entries below; each comes with its answer.
In: Form: Entry = COc1cc(NC(C(=O)c2c[nH]c3ccccc23)c2ccccc2)cc(OC)c1 (single isomer, unassigned; (+)) | System = Cytochrome P450 3A4 (Homo sapiens) | IC50 = ____
Out: > 10 µM

In: Request body: readout IC50, system Cytochrome P450 3A4 (Homo sapiens), query COc1cc(NC(C(=O)c2c[nH]c3ccccc23)c2ccccc2)cc(OC)c1 (racemic) . Return the value.
Out: > 10 µM

In: State its IC50 on Cytochrome P450 3A4 (Homo sapiens): COc1cncc(NC(C(=O)c2c[nH]c3ccccc23)c2ccccc2)c1 (centres undefined)
Sequence (P08684 whole entry): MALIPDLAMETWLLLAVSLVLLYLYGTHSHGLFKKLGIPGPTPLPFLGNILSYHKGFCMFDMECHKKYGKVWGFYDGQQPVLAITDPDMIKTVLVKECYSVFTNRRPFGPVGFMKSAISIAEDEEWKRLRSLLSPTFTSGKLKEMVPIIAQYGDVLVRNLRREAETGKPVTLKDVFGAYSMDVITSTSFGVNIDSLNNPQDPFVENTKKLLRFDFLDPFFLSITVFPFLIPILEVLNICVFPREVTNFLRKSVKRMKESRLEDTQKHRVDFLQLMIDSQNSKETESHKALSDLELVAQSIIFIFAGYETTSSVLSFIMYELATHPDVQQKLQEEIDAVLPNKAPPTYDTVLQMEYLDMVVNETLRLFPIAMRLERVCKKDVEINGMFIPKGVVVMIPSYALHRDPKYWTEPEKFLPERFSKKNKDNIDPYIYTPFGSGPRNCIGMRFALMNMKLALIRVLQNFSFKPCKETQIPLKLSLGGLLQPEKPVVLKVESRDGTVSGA
Out: 0.05 µM

Let's switch to this compound now.
In: What IC50 appears in the records for this compound with Cytochrome P450 3A4 (Homo sapiens)? COc1cc(NC(C(=O)c2c[nH]c3ccccc23)c2ccccc2)cc(OCCO)c1 (single isomer, unassigned; (+))
Out: > 10 µM

====

Assay: Cytotoxicity against African green monkey Vero cells assessed as cell growth inhibition after 4 days by MTS/PMS method
Format: cell-based
Conditions: chlorocebus sabaeus, Vero cells
MEASUREMENT NAME: CC50 at 96 h (µM)
Dear colleague, please return just the value in µM, with no unit written.

In: Sample COc1cccc(NC(C(=O)c2c[nH]c3ccccc23)c2cncnc2)c1 (configuration not stated) — what was its CC50 at 96 h?
Out: 100

In: # query: CC50 at 96 h of entry COc1cc(NC(C(=O)c2c[nH]c3cccc(CO)c23)c2ccccc2)cc(OC)c1 (configuration not stated)
Out: 71

In: For the compound shown here, COc1cccc(NC(C(=O)c2c[nH]c3ccccc23)c2ccccc2C)c1 (configuration not stated) , give the reported CC50 at 96 h.
Out: 14

In: Which CC50 at 96 h reading was recorded for the compound COc1cccc(NC(C(=O)c2c[nH]c3ccccc23)c2ccc(C#N)cc2)c1 (configuration not stated) ?
Out: 14

In: CC50 at 96 h for N#Cc1cccc(NC(C(=O)c2c[nH]c3ccccc23)c2ccccc2)c1 (configuration not stated) ?
Out: 14

---
In: Item COc1cccc(NC(C(=O)c2c[nH]c3ccccc23)c2cnccn2)c1 (configuration not stated) has what recorded CC50 at 96 h?
Out: 65

In: Report CC50 at 96 h for COc1cccc(NC(C(=O)c2c[nH]c3ccccc23)c2cc(C)on2)c1 (configuration not stated) please.
Out: 50

In: Fill blank: measured CC50 at 96 h of the compound CS(=O)(=O)c1cccc(NC(C(=O)c2c[nH]c3ccccc23)c2ccccc2)c1 (configuration not stated) is ____.
Out: 65

In: Look up CC50 at 96 h: COc1cccc(NC(C(=O)c2c[nH]c3ccccc23)c2ccncc2)c1 (configuration not stated)
Out: 16

In: Can you share its CC50 at 96 h? I mean this compound: COc1nc(NC(C(=O)c2c[nH]c3ccccc23)c2ccccc2)ns1 (configuration not stated)
Out: 90

meta.source: ChEMBL document CHEMBL4196174
